tested on: Streptococcus pyogenes; assay: Antibacterial activity against Streptococcus pyogenes ATCC 12344 assessed as reduction in […] growth at 0.01 to 30 uM incubated for 24 hrs by spectrophotometry based broth microdilution assay; type: functional, organism-based
The source made the active and inactive calls. The calls are words filed in the database; no cut-off is given here.
Reported metric: Activity

- Structure: "CC(C)[C@H]1CC[C@@](O)(COC(=O)/C(=C/[C@H]2C3=C(CC[C@@H]2C(C)C)COC3=O)CO)[C@H]2C(=O)OCC(C(=O)O)=C[C@H]12"
  Reported metric: "Activity"
  Measured: "inactive"
- Structure: "CC(C)[C@H]1CC[C@@](O)(COC(=O)/C(=C/[C@@H]2[C@@H](C(C)C)CC[C@@]3(O)COC(=O)[C@@H]23)CO)[C@H]2C(=O)OCC(C(=O)O)=C[C@H]12"
  Reported metric: "Activity"
  Measured: "inactive"
- Structure: "CC(C)[C@H]1CC[C@@](O)(COC(=O)C2=C[C@H]3[C@@H](OC2)[C@H](CO)CC[C@@H]3C(C)C)[C@H]2C(=O)OCC(C(=O)O)=C[C@H]12"
  Reported metric: "Activity"
  Measured: "inactive"

* * *

system: Streptococcus pyogenes; experiment: Antibacterial activity against Streptococcus pyogenes ATCC 12344 assessed as reduction in […] growth at 0.01 to 30 uM incubated for 24 hrs by spectrophotometry based broth microdilution assay; assay type: functional, organism-based
Calls of active or inactive are those of the source. The calls are words filed in the database; no cut-off is given here.
Reported metric: Activity

Sample answers from the record:
- Structure: "CC(C)[C@H]1CC[C@@]2(OC(=O)/C(=C/[C@H]3C=C(CO)CC[C@@H]3C(C)C)CO)COC(=O)[C@H]2[C@@H]1/C=C(\\CO)C(=O)O"
  Measured: "inactive"
- Structure: "CC(C)[C@H]1CC[C@@](O)(COC(=O)/C(=C/[C@@H]2[C@@H](C(C)C)CC[C@@](O)(COC(=O)/C(=C/[C@H]3C4=C(CC[C@@H]3C(C)C)COC4=O)CO)[C@H]2C(=O)O)CO)[C@H]2C(=O)OCC(C(=O)O)=C[C@H]12"
  Measured: "inactive"
- Structure: "CC(C)[C@H]1CC[C@@](O)(COC(=O)C2=C[C@@H]3[C@@H](C(C)C)CC[C@@](O)(COC(=O)/C(=C/[C@@H]4[C@@H](C(C)C)CC[C@@]5(O)COC(=O)[C@@H]45)CO)[C@H]3C(=O)OC2)[C@H]2C(=O)OCC(C(=O)O)=C[C@H]12"
  Measured: "inactive"
- Structure: "CC(C)[C@H]1CC[C@@](O)(COC(=O)C2=C[C@@H]3[C@@H](C(C)C)CC[C@@](O)(COC(=O)/C(=C/[C@H]4C5=C(CC[C@@H]4C(C)C)COC5=O)CO)[C@H]3C(=O)OC2)[C@H]2C(=O)OCC(C(=O)O)=C[C@H]12"
  Measured: "inactive"
- Structure: "CC(C)[C@H]1CC[C@@](O)(COC(=O)/C(=C/[C@H]2C3=C(CC[C@@H]2C(C)C)COC3=O)CO)[C@@H](C(=O)O)[C@@H]1/C=C(\\CO)C(=O)O"
  Measured: "inactive"
- Structure: "CC(C)[C@H]1CC[C@@](O)(COC(=O)/C(=C/[C@H]2C=C(CO)CC[C@@H]2C(C)C)CO)[C@H]2C(=O)OCC(C(=O)O)=C[C@H]12"
  Measured: "inactive"
- Structure: "CC(C)[C@H]1CC[C@@](O)(COC(=O)C2=C[C@@H]3[C@@H](C(C)C)CC[C@@](O)(COC(=O)/C(=C/[C@H]4C=C(CO)CC[C@@H]4C(C)C)CO)[C@H]3C(=O)OC2)[C@H]2C(=O)OCC(C(=O)O)=C[C@H]12"
  Measured: "inactive"
- Structure: "CC(C)[C@H]1CC[C@@]2(OC(=O)/C(=C/[C@H]3C4=C(CC[C@@H]3C(C)C)COC4=O)CO)COC(=O)[C@H]2[C@@H]1/C=C(\\CO)C(=O)O"
  Measured: "inactive"
- Structure: "CC(C)[C@H]1CC[C@@](O)(COC(=O)/C(=C/[C@@H]2[C@@H](C(C)C)CC[C@@]3(O)COC(=O)[C@@H]23)CO)[C@@H](C(=O)O)[C@@H]1/C=C(\\CO)C(=O)O[C@@]12CC[C@H](C(C)C)[C@@H](/C=C(\\CO)C(=O)O)[C@@H]1C(=O)OC2"
  Measured: "inactive"
- Structure: "CC(C)[C@H]1CC[C@@](O)(COC(=O)/C(=C/[C@@H]2[C@@H](C(C)C)CC[C@@]3(OC(=O)/C(=C/[C@H]4C=C(CO)CC[C@@H]4C(C)C)CO)COC(=O)[C@@H]23)CO)[C@H]2C(=O)OCC(C(=O)O)=C[C@H]12"
  Measured: "inactive"

Given the entry CC(C)[C@H]1CC[C@@](O)(COC(=O)/C(=C/[C@H]2C=C(CO)CC[C@@H]2C(C)C)CO)[C@H]2C(=O)OCC(C(=O)O[C@@]34CC[C@H](C(C)C)[C@@H](/C=C(\CO)C(=O)O)[C@@H]3C(=O)OC4)=C[C@H]12 , report its measured Activity.
inactive
